Several publications report IC50 on PIK3CD (Human) (UniProt O00329); those values are gathered here.

Some molecules with known IC50 results, for comparison:
| molecule | measurement.kind | experimental.result |
| --- | --- | --- |
| Cc1nn(C(C)c2cc(Cl)c(F)c3c2OCCCN(S(C)(=O)=O)C3)c2ncnc(N)c12 (stereo not shown) | IC50 | ≤ 100 nM |
| COC[C@@H]1CCCN1[C@H]1CC[C@@H](CNc2cc(-n3c(C(F)F)nc4ccccc43)nc(N3CCOCC3)n2)CC1 | IC50 | 23 nM |
| C[C@H](Nc1ncnc2scnc12)c1cc2cccc(Cl)c2c(N2CCN(C)CC2)n1 | IC50 | < 100 nM |

Attention now shifts to the item below.
Ask | IC50 of `C[C@H]1CN(C2CN(c3cnc4ccc(-c5ccc6oc(N)nc6c5)nc4n3)C2)CCN1C` on PIK3CD (Human) (UniProt O00329)?
Reply | < 10000 nM

====

Several publications report IC50 on UniProt:O00329; those values are gathered here.

Some compounds with known IC50 results, for comparison:
| smiles.record | IC50 |
| --- | --- |
| Cc1ccccc1-n1c(Cn2nc(-c3ccc4nc(N)sc4c3)c3c(N)ncnc32)cc2cccc(C)c2c1=O | < 100 nM |
| COc1ncc(-c2nc(N3CCOCC3)nc3c(CN4CCC(C)(C)CC4)c(C)sc23)cc1NS(C)(=O)=O | 34 nM |

Attention now shifts to the item below.
Ask | Requested field: IC50. Item: `CS(=O)(=O)CCN1CCC(Nc2cnc3ccc(-c4ccc5oc(N)nc5c4)cc3n2)CC1`
Reply | < 1000 nM

====

Several publications report IC50 on PIK3CD (Human) (UniProt O00329); those values are gathered here.

Some compounds with known IC50 results, for comparison:
| compound | tested.target | IC50 |
| --- | --- | --- |
| CC(=O)Nc1nc2ccc(-c3nn(Cc4cc5cccc(C)c5c(=O)n4-c4ccccc4C)c4ncnc(N)c34)cc2o1 | PIK3CD (Human) (UniProt O00329) | < 0.1 µM |
| CCN(C(C)CF)[C@H]1CC[C@H](CNc2nc(N3CCOCC3)cc(-n3c(C(F)F)nc4ccccc43)n2)CC1 (stereo partly shown) | PIK3CD (Human) (UniProt O00329) | 0.014 µM |
| Nc1nc2cc(-c3ccc4nccc(NC5CCOCC5)c4c3)ccc2o1 | PIK3CD (Human) (UniProt O00329) | > 10 µM |

Ask | Requested field: IC50. Item: `Cc1cccc2cc([C@H](C)Nc3ncnc4[nH]cnc34)nc(CCN3CCOCC3)c12`
Reply | < 0.1 µM

====

Several publications report IC50 on PIK3CD (Human); those values are gathered here.
measurement.kind: IC50 (nM)

(a) C[C@@H]1COCCN1[C@H]1CC[C@H](CNc2cc(-n3c(C(F)F)nc4ccccc43)nc(N3CCOCC3)n2)CC1
(b) COc1ncc(-c2nc(N3CCOCC3)nc3c(CN4CCC(C(C)(C)O)CC4)c(C)sc23)cc1NS(=O)(=O)C1CC1
(c) COc1ncc(-c2nc(N3CCOCC3)c3sc(CN4CCC(C(C)(C)O)CC4)c(C)c3n2)cc1NS(C)(=O)=O
(d) Nc1ncnn2c(C3Cc4ccccc4C3)cc(-c3cc(O)c(F)c(F)c3)c12
Ask | Reorder the list above by recorded IC50 in ascending order. # respond with the labels, arranged in the requested order
Reply | c, b, d, a
(c: 3.4 nM, b: 9.4 nM, d: 32.8 nM, a: 50 nM)
